target: Left-right determination factor 2 (Homo sapiens); assay: small molecules binding LEFTY2 protein – biochemical, small-molecule microarray, 635 nm fluorescence scan, primary screen (AID 1110); details: higher = more signal
reported.property: composite z-score
Reply: number alone, nothing else.

Here is how some compounds turned out for composite z-score.
INSERT INTO measurements (compound, reported_property, data_value) VALUES
  ('CC1CC/C=C\[C@H]2OC34C=CCN(CCN5CCOCC5)C(=O)[C@H]3N(CCCCCO)C(=O)[C@@H]4C2C(=O)O1 (some centres undefined)', 'composite z-score', 0.0111),
  ('COCCCNC(=O)[C@@]1(Cc2ccccc2I)c2ccccc2C(=O)N(Cc2ccccc2)[C@H]1c1ccc(CO)cc1', 'composite z-score', -2.53),
  ('CC(C)(C)OC(=O)CC[C@@]1(C(=O)N2CCOCC2)N=C(c2ccc(OCCCO)cc2)O[C@@H]1c1ccccc1N=[N+]=[N-]', 'composite z-score', 0.395);

Next up:
Lookup: # return composite z-score for `CC(C)N1C(=O)c2ccccc2[C@](C)(C(=O)NC2CC2)[C@@H]1c1ccc(CO)cc1` , test system: Left-right determination factor 2 (Homo sapiens)
Found: 0.0197

###

test: compound effects on multiple myeloma cell viability – MM1S, calcein-AM fluorescence, 48 h, basal, profiling panel (AID 1165); settings: higher = more signal;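 further: viability of MM1S multiple myeloma cells under basal unstimulated conditions; test concentration not given here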
Categories are assigned from the measured z-score using these intervals: 1: < -1; 2: ≥ -1 and < -0.1; 3: ≥ -0.1

Field: example entries. Status: answers known.
INSERT INTO results (compound, answer_label) VALUES
  ('CC(C)NC(=O)[C@@H]1c2ccccc2C(=O)N(C2CCCCC2)[C@H]1c1ccc(CO)cc1', 2),
  ('COc1cc2c(cc1O)C(c1ccc(CN3CCCC3)cc1)N(Cc1sc3ccccc3c1Cl)CC2 (stereo not given)', 1),
  ('CC(c1ccccc1)C(O)C1C=CC2C(=O)N(Cc3ccccc3)C(=O)C2N1n1cnnc1 (stereo not given)', 3),
  ('C=CCC(OC(C)=O)[C@@H]1[C@@H](N(Cc2cc3ccccc3o2)C(=O)c2cccc3ccccc23)c2cc(OCCCO)ccc2N1C(=O)Cc1ccc(OC)cc1 (stereo not given in full)', 3);

Next item in the queue.
Lookup: Sort into band: CN1C(=O)C2C=CC(C(O)C=Cc3ccc([N+](=O)[O-])cc3)N(N3CCCCC3)C2C1=O (stereo not given)
Found: 2

###

assay: blockers of DNA damage checkpoint Chk1 activation – imaging, HeLa, hydroxyurea, phospho-Chk1 nuclear intensity, primary screen (AID 1187); conditions: hydroxyurea-induced phospho-Chk1 immunofluorescence imaging, higher = more signal; further: test concentration not given here
reported.property: z-score
Reply: number alone, nothing else.

Lookup: Hello, please tell me recorded z-score for this one: `O=C1O[C@@H](c2ccccc2)[C@@H](c2ccccc2)N2[C@@H](c3ccc(O)cc3)[C@]3(C(=O)Nc4ccc(C#CCCO)cc43)[C@@H](C(=O)N3CCCCCCC3)[C@H]12`
Found: -0.56

Lookup: Hello, please tell me recorded z-score for this one: `C=CCN1C(=O)[C@@]2(O[C@@H](CCO)[C@H]([Si](C)(C)c3ccc(OC)cc3)[C@H]2C)c2cc(NC(C)=O)ccc21`
Found: 0.348

Lookup: Hello, please tell me recorded z-score for this one: O=C1OCCC/C=C\[C@H]2OC34C=CCN(Cn5nnc6ccccc65)C(=O)[C@H]3N(CCCO)C(=O)[C@@H]4C12 (some centres not stated)
Found: -0.103

Lookup: Hello, please tell me recorded z-score for this one: `CCCCCCC#C[Si](O[C@H](c1ccccc1)c1cn([C@H](C)c2ccccc2)nn1)(C(C)C)C(C)C`
Found: -0.487

Lookup: Hello, please tell me recorded z-score for this one: `[N-]=[N+]=NCc1ccccc1C[C@]1(C(=O)NCCN2CCOCC2)N=C(c2ccc(OCCCO)cc2)O[C@H]1c1ccccc1CN=[N+]=[N-]`
Found: -0.787

Lookup: Hello, please tell me recorded z-score for this one: `O=S(=O)(NCCCO)c1ccc(Br)cc1`
Found: -0.953

Lookup: Hello, please tell me recorded z-score for this one: `CC(C)[C@H]1COC(=O)N1C(=O)[C@H]1[C@@H](c2ccccc2)N(c2ccccc2)O[C@@H]1C`
Found: -1.2

###

test: hepatitis C replication reporter changes, two-sided – Huh7 cells, luciferase reporter, HCV replication inhibitor project, primary screen (AID 1109); conditions: Huh7 HCV replicon luciferase reporter, 48 h; higher = more signal;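 further: huh7 hepatoma cells harbouring a luciferase neomycin HCV replicon reporter; luciferase luminescence as measure of HCV replicon replication; test concentration not given here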
reported.property: z-score
Reply: number alone, nothing else.

Here is how some compounds turned out for z-score.
INSERT INTO measurements (compound, data_value) VALUES
  ('O=C(NCC(F)(F)F)[C@@H]1c2ccccc2C(=O)N(Cc2ccccc2)[C@H]1c1ccc(CO)cc1', -0.32),
  ('C=CCN1C(=O)[C@@]2(O[C@@H](CCO)[C@H]([Si](C)(C)c3ccc(OC)cc3)[C@H]2C)c2cc(NC(C)=O)ccc21', -3.7),
  ('Cc1ccc(S[C@]2(C(=O)NCCCN(C)C)CC(=O)N(Cc3ccccc3)[C@@H]2c2ccc(CO)cc2)cc1', -1.7),
  ('CCCC[C@H]1C[C@@H]1[C@@H]1N(P(=O)(c2ccccc2)c2ccccc2)[C@](CO)(c2ccccc2)CC12CC2', -2.4),
  ('C=C(COC)C(=O)CC[C@@H](OC(=O)c1ccccc1-c1ccccc1C(=O)O)c1ccc(CO)o1', -4.48);

Lookup: Hello, please tell me recorded z-score for this one: CN1C(=O)C2C(C1=O)C1C=C(c3ccc(CO)cc3)C2C(C2CC2)N1Cc1sc2ccccc2c1Cl (configuration not stated)
Found: -1.58

Lookup: Hello, please tell me recorded z-score for this one: C=CCC(OC(C)=O)[C@@H]1[C@@H](N(Cc2cc3ccccc3o2)C(=O)c2ccc(-c3ccccc3)cc2)c2cc(OCCCO)ccc2N1C(=O)Cc1ccc2ccccc2c1 (some centres not stated)
Found: -0.532

###

# reported composite z-score; entries follow
test: small molecules captured by biotinylated probe aFST – biochemical, small-molecule microarray, fluorescence 635/667, stem cell growth factor project, primary screen (AID 1086); details: higher = more signal;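 further: score merges 667 nm fluorescence with signal-to-noise of each printed compound spot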
Reply: number alone, nothing else.

Here is how some molecules turned out for composite z-score.
INSERT INTO results (molecule, reported_property, data_value) VALUES
  ('CC(C)OC(=O)C1=CCC(c2cccc(Cl)c2)O1 (stereo unspecified)', 'composite z-score', -0.332),
  ('CC(C)(C)OC(=O)CC[C@]1(C(=O)NCC(O)CO)N=C(c2ccc(OCCCO)cc2)O[C@H]1c1ccccc1CN=[N+]=[N-] (stereo partly specified)', 'composite z-score', 1.68),
  ('COc1cc(NN2C(C(O)c3ccccc3)C=CC3C(=O)N(c4ccccc4)C(=O)C32)cc(OC)c1OC (stereo unspecified)', 'composite z-score', 1.08),
  ('C=C(COC)C(=O)CC[C@@H](OC(=O)c1ccccc1-c1ccccc1C(=O)O)c1ccc(CO)o1', 'composite z-score', -0.551),
  ('COC(=O)[C@@]1(Cc2ccc(OC)cc2)[C@H]2c3cc(C(=O)N4CCCC4)n(C[C@H](O)CO)c3C[C@H]2CN1C(=O)c1ccccc1', 'composite z-score', 0.488);

Lookup: Hello, please tell me recorded composite z-score for this one: `O=[N+]([O-])c1ccc(C[n+]2ccc(CCCO)cc2)o1`
Found: 0.181

###

biological target: Albumin (Bos taurus); experiment: compounds binding labelled BSA control protein – biochemical, small-molecule microarray, Alexa647 label, 635/667 nm fluorescence, artefact control for SMM control protein annotation, profiling panel (AID 1118); details: BSA-A647 binding, fluorescence 635 nm, higher = more signal;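 further: score merges 667 nm emission intensity and signal-to-noise per printed compound spot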
Classify by measured composite z-score: 1 if it is equal to or exceeds 0.7, -1 if it is smaller.

Field: example entries. Status: answers known.
INSERT INTO measurements (compound, target_system, answer_label) VALUES
  ('Cc1ccc(C(C)CC(O)C2C=CC3C(=O)NC(=O)C3N2Nc2ccccn2)o1 (stereo not drawn)', 'Albumin (Bos taurus)', -1),
  ('C[n+]1ccc2ccc(O)cc2c1', 'Albumin (Bos taurus)', -1),
  ('CN(C)CCCC[C@@H]1NC(=O)[C@@H]2C[C@H](C(=O)NCCCCCN)[C@H](c3ccc(O)cc3)N2C1=O', 'Albumin (Bos taurus)', 1),
  ('CCOC(=O)C=Cc1cccc(OC)c1O', 'Albumin (Bos taurus)', -1);

Lookup: Quick check: does Cn1c2c(c3ccccc31)C(=O)C1NC2C=CC1(C)C(=O)OCc1ccccc1 (stereo not drawn) have composite z-score greater than or equal to 0.7?
Found: -1

Lookup: Quick check: does `C=C(CCCC)/C(=C/C[C@@H](OC(=O)c1ccncc1)c1ccc(CO)o1)c1cc(C(=O)OC)ccc1OC` have composite z-score greater than or equal to 0.7?
Found: -1

Lookup: Quick check: does `O=C(NCc1ccccc1)[C@@H]1c2ccccc2C(=O)N(C2CCCCC2)[C@H]1c1ccc(CO)cc1` have composite z-score greater than or equal to 0.7?
Found: -1

Lookup: Quick check: does O=C1OCCC/C=C\[C@H]2OC34C=CCN(CCN5CCOCC5)C(=O)[C@H]3N(CCO)C(=O)[C@@H]4C12 (stereo partly drawn) have composite z-score greater than or equal to 0.7?
Found: -1

Lookup: Quick check: does O=C1NC(=O)C2C1C=CC(C(O)c1cccs1)N2Nc1ccccn1 (stereo not drawn) have composite z-score greater than or equal to 0.7?
Found: -1

Lookup: Quick check: does `CC(C)NC(=O)[C@@H]1c2ccccc2C(=O)N(C2CCCCC2)[C@H]1c1ccc(CO)cc1` have composite z-score greater than or equal to 0.7?
Found: -1

Lookup: Quick check: does `O=[N+]([O-])c1ccc(C[n+]2ccc(CCCO)cc2)o1` have composite z-score greater than or equal to 0.7?
Found: 1

Lookup: Quick check: does CCOC(=O)N1C(c2ccc(OCCCO)cc2)=NC(C(=O)OC)N1C(=O)OCC (stereo not drawn) have composite z-score greater than or equal to 0.7?
Found: 1

Lookup: Quick check: does `COc1ccc(C#Cc2ccc3c(c2)[C@]2(C(=O)N3)[C@H](C(=O)N3CCN(c4ncccn4)CC3)[C@H]3C(=O)O[C@H](c4ccccc4)[C@H](c4ccccc4)N3[C@@H]2c2ccc(O)cc2)cc1` have composite z-score greater than or equal to 0.7?
Found: -1
